In this section, each of the compounds is paired with its reported IC50.
molecular target: MMP-13 (Homo sapiens, UniProt P45452)
parameter.measured: IC50 (µM)

>>> readout_value("O=C(Nc1ccccc1)Nc1ccc2nc(NC(P(=O)(O)O)P(=O)(O)O)sc2c1")
11.5
>>> readout_value("O=P(O)(O)C(CNc1nc2ccc(Cl)cc2s1)P(=O)(O)O")
0.82
>>> readout_value("O=C(Nc1ccc2nc(NC(P(=O)(O)O)P(=O)(O)O)sc2c1)c1ccccc1")
0.67
>>> readout_value("O=C(Nc1ccc2nc(NC(P(=O)(O)O)P(=O)(O)O)sc2c1)c1ccc(Br)cc1")
6.7
>>> readout_value("O=C(Nc1ccc2nc(NC(P(=O)(O)O)P(=O)(O)O)sc2c1)c1ccc([N+](=O)[O-])cc1")
0.5
>>> readout_value("CC(N)C(=O)Nc1ccc2nc(NC(P(=O)(O)O)P(=O)(O)O)sc2c1 (centres unmarked)")
61.9
>>> readout_value("O=P(O)(O)C(Nc1nc2ccc(F)cc2s1)P(=O)(O)O")
4.25
>>> readout_value("O=P(O)(O)C(NS(=O)(=O)c1ccc(-c2ccccc2)cc1)P(=O)(O)O [ML115, reference compound]")
0.6

###

In this section, each of the compounds is paired with its reported Ligand Efficiency MMP-8.
target: MMP-8 (Homo sapiens); construct: Catalytic domains of MMP-2, -8, -9, and -13 were obtained from Enzo Life Sciences; purchased Enzo Life Sciences; test: fluorometric MMP inhibition assay, MMP-8 catalytic domain; assay type: biochemical; conditions: calculated from IC50 values of Table 2
Sequence (P22894 100-262 limits assumed): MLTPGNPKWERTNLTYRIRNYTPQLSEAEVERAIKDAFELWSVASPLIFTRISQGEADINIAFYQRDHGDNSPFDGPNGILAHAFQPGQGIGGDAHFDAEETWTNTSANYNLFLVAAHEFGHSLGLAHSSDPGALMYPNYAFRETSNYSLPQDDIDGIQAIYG
parameter.measured: Ligand Efficiency MMP-8

>>> readout_value("O=C1c2ccccc2C(=O)N1c1ccc2nc(NC(P(=O)(O)O)P(=O)(O)O)sc2c1")
0.23
>>> readout_value("O=P(O)(O)C(CNc1nc2ccc(Cl)cc2s1)P(=O)(O)O")
0.31
>>> readout_value("O=P(O)(O)C(NS(=O)(=O)c1ccc(-c2ccccc2)cc1)P(=O)(O)O [ML115, reference compound]")
0.35
>>> readout_value("O=C(Nc1ccccc1)Nc1ccc2nc(NC(P(=O)(O)O)P(=O)(O)O)sc2c1")
0.23
>>> readout_value("O=C(Nc1ccc2nc(NC(P(=O)(O)O)P(=O)(O)O)sc2c1)c1ccc([N+](=O)[O-])cc1")
0.23
>>> readout_value("O=P(O)(O)C(Nc1nc2ccccc2s1)P(=O)(O)O")
0.30
>>> readout_value("O=P(O)(O)C(Nc1nc2ccc(Cl)cc2s1)P(=O)(O)O")
0.33
>>> readout_value("O=C(Nc1ccc2nc(NC(P(=O)(O)O)P(=O)(O)O)sc2c1)c1ccccc1")
0.25

###

Biological target: MMP-9 (Homo sapiens)
Construct: Catalytic domains of MMP-2, -8, -9, and -13 were obtained from Enzo Life Sciences; purchased Enzo Life Sciences
Sequence (P14780 107-444 limits assumed): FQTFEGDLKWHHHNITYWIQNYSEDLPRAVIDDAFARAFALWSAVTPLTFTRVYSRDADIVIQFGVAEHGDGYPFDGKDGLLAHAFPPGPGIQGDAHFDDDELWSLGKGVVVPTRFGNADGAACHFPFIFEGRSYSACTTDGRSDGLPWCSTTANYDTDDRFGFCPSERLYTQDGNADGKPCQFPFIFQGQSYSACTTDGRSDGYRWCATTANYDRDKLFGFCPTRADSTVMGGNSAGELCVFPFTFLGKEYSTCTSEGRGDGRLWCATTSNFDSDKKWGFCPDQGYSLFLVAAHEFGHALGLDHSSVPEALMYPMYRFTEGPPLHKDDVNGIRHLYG
Experiment: fluorometric MMP inhibition assay, MMP-9 catalytic domain
Type: biochemical
Details: catalytic domain, fluorometric assay, mean ± SEM of at least 3 experiments
Procedure: Catalytic domains of MMP-2, -8, -9, and -13 were obtained from Enzo Life Sciences. 96-well white microtiter plates (Corning, NBS) were used to carry out the assays (in triplicate). […] The assay was incubated for 2–4 h at 37 °C, after which a Perkin–Elmer Victor V3 plate reader was used to measure fluorescence (λex= 340 nm, λem = 405 nm or λex = 545 nm, λem = 572 nm). […] MMP activity was thus determined and expressed in relative fluorescence units (RFU). […]
pIC50: −log10 of the molar value.
parameter.measured: pIC50

>>> readout_value("O=P(O)(O)C(Nc1nc2ccc(Cl)cc2s1)P(=O)(O)O [Compound 3]")
4.73
>>> readout_value("O=C(Nc1ccccc1)Nc1ccc2nc(NC(P(=O)(O)O)P(=O)(O)O)sc2c1 [Compound 9]")
4.87
>>> readout_value("O=C(Nc1ccc2nc(NC(P(=O)(O)O)P(=O)(O)O)sc2c1)c1ccccc1 [Compound 5]")
5.20
>>> readout_value("O=P(O)(O)C(CNc1nc2ccc(Cl)cc2s1)P(=O)(O)O [Compound 12]")
4.44
>>> readout_value("O=C(Cc1ccccc1)Nc1ccc2nc(NC(P(=O)(O)O)P(=O)(O)O)sc2c1 [Compound 8]")
4.66
>>> readout_value("O=C(Nc1ccc2nc(NC(P(=O)(O)O)P(=O)(O)O)sc2c1)c1ccc([N+](=O)[O-])cc1 [Compound 7]")
5.27
>>> readout_value("O=[N+]([O-])c1ccc2nc(NC(P(=O)(O)O)P(=O)(O)O)sc2c1 [Compound 4]")
5.11
>>> readout_value("O=P(O)(O)C(Nc1nc2ccc(F)cc2s1)P(=O)(O)O [Compound 2]")
4.58
>>> readout_value("O=C1c2ccccc2C(=O)N1c1ccc2nc(NC(P(=O)(O)O)P(=O)(O)O)sc2c1 [Compound 10]")
5.27

###

In this section, each of the molecules is paired with its reported Ligand Efficiency MMP-8.
target: MMP-8 (Homo sapiens); construct: Catalytic domains of MMP-2, -8, -9, and -13 were obtained from Enzo Life Sciences; purchased Enzo Life Sciences; test: fluorometric MMP inhibition assay, MMP-8 catalytic domain; type: biochemical; conditions: calculated from IC50 values of Table 2
parameter.measured: Ligand Efficiency MMP-8

>>> readout_value("CC(N)C(=O)Nc1ccc2nc(NC(P(=O)(O)O)P(=O)(O)O)sc2c1 (centres unmarked) [Compound 11]")
0.23
>>> readout_value("O=C(Cc1ccccc1)Nc1ccc2nc(NC(P(=O)(O)O)P(=O)(O)O)sc2c1 [Compound 8]")
0.23
>>> readout_value("O=P(O)(O)C(Nc1nc2ccc(F)cc2s1)P(=O)(O)O [Compound 2]")
0.31
>>> readout_value("O=[N+]([O-])c1ccc2nc(NC(P(=O)(O)O)P(=O)(O)O)sc2c1 [Compound 4]")
0.31
>>> readout_value("O=C(Nc1ccc2nc(NC(P(=O)(O)O)P(=O)(O)O)sc2c1)c1ccc(Br)cc1 [Compound 6]")
0.19

###

target: MMP-13 (Homo sapiens, UniProt P45452); construct: Catalytic domains of MMP-2, -8, -9, and -13 were obtained from Enzo Life Sciences; purchased Enzo Life Sciences; experiment: fluorometric MMP inhibition assay, MMP-13 catalytic domain; assay type: biochemical; details: calculated from IC50 values of Table 2
parameter.measured: Ligand Efficiency MMP-13

>>> readout_value("O=C(Nc1ccc2nc(NC(P(=O)(O)O)P(=O)(O)O)sc2c1)c1ccccc1")
0.30
>>> readout_value("O=C(Nc1ccccc1)Nc1ccc2nc(NC(P(=O)(O)O)P(=O)(O)O)sc2c1")
0.23
>>> readout_value("O=P(O)(O)C(NS(=O)(=O)c1ccc(-c2ccccc2)cc1)P(=O)(O)O [ML115, reference compound]")
0.34
>>> readout_value("O=P(O)(O)C(Nc1nc2ccc(F)cc2s1)P(=O)(O)O")
0.37
>>> readout_value("O=C(Cc1ccccc1)Nc1ccc2nc(NC(P(=O)(O)O)P(=O)(O)O)sc2c1")
0.24
>>> readout_value("O=C(Nc1ccc2nc(NC(P(=O)(O)O)P(=O)(O)O)sc2c1)c1ccc(Br)cc1")
0.24
>>> readout_value("O=[N+]([O-])c1ccc2nc(NC(P(=O)(O)O)P(=O)(O)O)sc2c1")
0.35
>>> readout_value("CC(N)C(=O)Nc1ccc2nc(NC(P(=O)(O)O)P(=O)(O)O)sc2c1 (stereo not shown)")
0.23
>>> readout_value("O=P(O)(O)C(Nc1nc2ccccc2s1)P(=O)(O)O")
0.38
>>> readout_value("O=C(Nc1ccc2nc(NC(P(=O)(O)O)P(=O)(O)O)sc2c1)c1ccc([N+](=O)[O-])cc1")
0.28
>>> readout_value("O=P(O)(O)C(Nc1nc2ccc(Cl)cc2s1)P(=O)(O)O")
0.41
>>> readout_value("O=C1c2ccccc2C(=O)N1c1ccc2nc(NC(P(=O)(O)O)P(=O)(O)O)sc2c1")
0.23
>>> readout_value("O=P(O)(O)C(CNc1nc2ccc(Cl)cc2s1)P(=O)(O)O")
0.40

###

biological target: MMP-13 (Homo sapiens); construct: Catalytic domains of MMP-2, -8, -9, and -13 were obtained from Enzo Life Sciences; purchased Enzo Life Sciences; assay: fluorometric MMP inhibition assay, MMP-13 catalytic domain; assay type: biochemical; conditions: ratio of IC50 values of Table 2
In this section, each of the compounds is paired with its reported Selectivity MMP-9/13.
parameter.measured: Selectivity MMP-9/13

>>> readout_value("O=P(O)(O)C(Nc1nc2ccc(Cl)cc2s1)P(=O)(O)O")
15.20
>>> readout_value("O=C1c2ccccc2C(=O)N1c1ccc2nc(NC(P(=O)(O)O)P(=O)(O)O)sc2c1")
0.50
>>> readout_value("O=C(Cc1ccccc1)Nc1ccc2nc(NC(P(=O)(O)O)P(=O)(O)O)sc2c1")
2.37

###

Target: MMP-2 (Homo sapiens, UniProt P08253)
Construct: Catalytic domains of MMP-2, -8, -9, and -13 were obtained from Enzo Life Sciences; purchased Enzo Life Sciences
Sequence (P08253 110-446 limits assumed): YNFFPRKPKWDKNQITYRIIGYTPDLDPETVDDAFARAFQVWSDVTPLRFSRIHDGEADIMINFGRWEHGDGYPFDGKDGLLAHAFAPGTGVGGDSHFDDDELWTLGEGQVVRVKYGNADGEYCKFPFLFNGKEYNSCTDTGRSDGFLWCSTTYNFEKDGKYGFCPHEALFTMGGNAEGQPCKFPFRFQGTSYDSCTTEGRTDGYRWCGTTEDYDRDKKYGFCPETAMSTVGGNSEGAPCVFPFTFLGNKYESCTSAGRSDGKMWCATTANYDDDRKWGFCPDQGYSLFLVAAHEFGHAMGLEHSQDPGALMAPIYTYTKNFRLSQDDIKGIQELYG
Experiment: fluorometric MMP inhibition assay, MMP-2 catalytic domain
Format: biochemical
Details: calculated from IC50 values of Table 2
Description: Catalytic domains of MMP-2, -8, -9, and -13 were obtained from Enzo Life Sciences. 96-well white microtiter plates (Corning, NBS) were used to carry out the assays (in triplicate). […] The assay was incubated for 2–4 h at 37 °C, after which a Perkin–Elmer Victor V3 plate reader was used to measure fluorescence (λex= 340 nm, λem = 405 nm or λex = 545 nm, λem = 572 nm). […] MMP activity was thus determined and expressed in relative fluorescence units (RFU). […]
In this section, each of the compounds is paired with its reported Ligand Efficiency MMP-2.
parameter.measured: Ligand Efficiency MMP-2

>>> readout_value("O=C(Nc1ccc2nc(NC(P(=O)(O)O)P(=O)(O)O)sc2c1)c1ccc([N+](=O)[O-])cc1")
0.27
>>> readout_value("O=C1c2ccccc2C(=O)N1c1ccc2nc(NC(P(=O)(O)O)P(=O)(O)O)sc2c1")
0.26
>>> readout_value("O=C(Nc1ccc2nc(NC(P(=O)(O)O)P(=O)(O)O)sc2c1)c1ccccc1")
0.29
>>> readout_value("O=P(O)(O)C(Nc1nc2ccccc2s1)P(=O)(O)O")
0.36
>>> readout_value("O=P(O)(O)C(Nc1nc2ccc(Cl)cc2s1)P(=O)(O)O")
0.38
